Every entry's value here was drawn from BindingDB's records for doi:10.1021/jm00113a023.

- assayed system: Gastrin/cholecystokinin type B receptor (Cavia porcellus)
- procedure text: Binding affinity for Cholecystokinin type B receptor in guinea pig cortex by using [125I]BH-CCK-8 as radioligand
*1 amine or outer side, *2 acyl side, *3 side chain or, on linkers, in order; H or OH if unused. Where a SMILES comes first, the peptide text is derived from it. Side-chain parts run from the residue outwards. [ ]: non-standard residue; d: D form. The star is where a group is joined. hCit = NC(=O)NCCCC[C@H](N)C(=O)O; NH(2-Me-phenyl) = Cc1ccccc1N*; Orn = NCCC[C@H](N)C(=O)O; Boc = CC(C)(C)OC(=O)*; X1 = Clc1cccc(Cl)c1N*; CO = O=C([*:1])[*:2]
Please provide measured IC50 for the entries that follow.
Numbers only, in µM.

Solved cases (2 shown):
Cc1ccccc1NC(=O)NCCC[C@H](NC(=O)[C@H](Cc1c[nH]c2ccccc12)NC(=O)OC(C)(C)C)C(=O)N[C@@H](CC(=O)O)C(=O)N[C@@H](Cc1ccccc1)C(N)=O (Boc-W[Orn]([CO-NH(2-Me-phenyl)])DF-NH2) ... 15
CC(C)(C)OC(=O)N[C@@H](Cc1c[nH]c2ccccc12)C(=O)N[C@@H](CCCCNC(=O)Nc1c(Cl)cccc1Cl)C(=O)N[C@@H](CC(=O)O)C(=O)N[C@@H](Cc1ccccc1)C(N)=O (Boc-WK([CO-X1])DF-NH2) ... 7

# ---- query compound ----
Data request: Would you kindly share the measured IC50 for CC(C)(C)OC(=O)N[C@@H](Cc1c[nH]c2ccccc12)C(=O)N[C@@H](CCCCNC(N)=O)C(=O)N[C@@H](CC(=O)O)C(=O)N[C@@H](Cc1ccccc1)C(N)=O (Boc-W[hCit]DF-NH2) ?
Data returned: 1

====

- assayed system: Gastrin/cholecystokinin type B receptor (Cavia porcellus)
- procedure text: Binding affinity for Cholecystokinin type B receptor in guinea pig cortex by using [125I]BH-CCK-8 as radioligand
*1 amine or outer side, *2 acyl side, *3 side chain or, on linkers, in order; H or OH if unused. Where a SMILES comes first, the peptide text is derived from it. Side-chain parts run from the residue outwards. The star is where a group is joined. NH(1-naphthyl) = c1ccc2c(N*)cccc2c1; NHPh(4-CF3) = FC(F)(F)c1ccc(N*)cc1; βNA = c1ccc2cc(N*)ccc2c1; Boc = CC(C)(C)OC(=O)*; CO = O=C([*:1])[*:2]; X2 = CC(C)c1ccccc1N*
observed property: IC50 (µM)
Give bare numbers, in µM.

CC(C)(C)OC(=O)N[C@@H](Cc1c[nH]c2ccccc12)C(=O)N[C@@H](CCCCNC(=O)Nc1ccc(C(F)(F)F)cc1)C(=O)N[C@@H](CC(=O)O)C(=O)N[C@@H](Cc1ccccc1)C(N)=O (Boc-WK([CO-NHPh(4-CF3)])DF-NH2) ... 0.85
CC(C)c1ccccc1NC(=O)NCCCC[C@H](NC(=O)[C@H](Cc1c[nH]c2ccccc12)NC(=O)OC(C)(C)C)C(=O)N[C@@H](CC(=O)O)C(=O)N[C@@H](Cc1ccccc1)C(N)=O (Boc-WK([CO-X2])DF-NH2) ... 5.7
CC(C)(C)OC(=O)N[C@@H](Cc1c[nH]c2ccccc12)C(=O)N[C@@H](CCCCNC(=O)Nc1ccc2ccccc2c1)C(=O)N[C@@H](CC(=O)O)C(=O)N[C@@H](Cc1ccccc1)C(N)=O (Boc-WK([CO-βNA])DF-NH2) ... 3.2

# ---- query compound ----
Data request: Would you kindly share the measured IC50 for CC(C)(C)OC(=O)N[C@@H](Cc1c[nH]c2ccccc12)C(=O)N[C@@H](CCCCNC(=O)Nc1cccc2ccccc12)C(=O)N[C@@H](CC(=O)O)C(=O)N[C@@H](Cc1ccccc1)C(N)=O (Boc-WK([CO-NH(1-naphthyl)])DF-NH2) ?
Data returned: 11
